runConditions: 303.15 K; 100 kPa; Liquid; Frequency=3 MHz; Sing-around technique in a fixed-path interferometer
endpointLabel: speed of sound (m/s)
Hi! Could you send only the number? It should be in m/s, unit omitted.

Query block: Quick one: speed of sound of CCCCCCCCCCCCCCCC ?
Result block: 1320

Query block: Next: CCCCCCCCCCCC
Result block: 1259.6

Query block: Moving on to CCCCCCCCCC
Result block: 1214.5

====

runConditions: 333.15 K; 102 kPa; Liquid; Concentric cylinders viscometry
endpointLabel: viscosity (mPa·s)
Response body: numeric value in mPa·s, unit text excluded.

As a guide, the following entries are already answered.
[[record]]
smilesstring = "CCCCCCCCCC"
endpointlabel = "viscosity"
unit = "mPa·s"
reportedvalue = 0.545

[[record]]
smilesstring = "CCCCCCCCCCCCCCCCC"
endpointlabel = "viscosity"
unit = "mPa·s"
reportedvalue = 1.79


Now let's try a different one.
Query block: # viscosity lookup, item CCCCCCCCCCCCCCCC
Result block: 1.55

====

Here, each record is paired with measured mass density data.
runConditions: 373.15 K; 102 kPa; Liquid; Vibrating tube method
Give just the number in kg/m3; leave the unit off.

# count of solved cases: 2
[[record]]
smilesstring = "CCCCCCCCCCCCCC"
endpointlabel = "mass density"
reportedvalue = 705.8

[[record]]
smilesstring = "CCCCCCCCCCCCCCCC"
endpointlabel = "mass density"
reportedvalue = 717.8


Now consider the entry below.
Query block: Find the recorded mass density belonging to CCCCCCCCCCCC and report it.
Result block: 689.6
